Test system: Mus musculus
Test: Anticonvulsant activity in Swiss Albino mouse at 300 mg/kg, ip after 4 hrs by scPIC test
Type: functional, organism-based
Set-up: dose 300 mg/kg
Calls of active or inactive are those of the source. No cut-off for these calls is given here.
measurementKind: Activity

Here are 10 molecules together with their reported answers.
* O=C(O)CCCNC(=O)NN=C1CCCCC1 | inactive
* O=C(O)CCCNC(=O)NN=C1CCCC1 | inactive
* O=C1NC(=O)C(c2ccccc2)(c2ccccc2)N1 | inactive
* CCC1(C)CC(=O)NC1=O (centres undefined) | inactive
* O=C(O)CCCNC(=O)N/N=C/c1ccc([N+](=O)[O-])cc1 | inactive
* O=C(O)CCCNC(=O)N/N=C(\c1ccccc1)c1ccc(Br)cc1 | inactive
* O=C(O)CCCNC(=O)NN=C(c1ccccc1)c1ccccc1 | Active
* C/C(=N\NC(=O)NCCCC(=O)O)c1ccc([N+](=O)[O-])cc1 | inactive
* O=C(O)CCCNC(=O)N/N=C/c1cccc([N+](=O)[O-])c1 | Active
* C/C(=N\NC(=O)NCCCC(=O)O)c1ccc(C)cc1 | inactive

List the reported Activity of each molecule below.
1. C/C(=N\NC(=O)NCCCC(=O)O)c1cccc(N)c1
2. CC(=O)Oc1ccccc1C(=O)O
3. C/C(=N\NC(=O)NCCCC(=O)O)c1ccccc1
4. O=C(O)CCCNC(=O)N/N=C1\C(=O)Nc2ccccc21

OUT:
inactive
inactive
Active
Active

* * *

System: Rattus norvegicus
Test: Anti-dynamic allodynia effect in Sprague-Dawley rat SNL model assessed as latency to paw withdrawal 100 mg/kg, ip after 1.5 hrs
Assay type: functional
Conditions: route intraperitoneal
Field: Activity. Provide a value for each of the molecules that follow.

- O=C(O)CCCNC(=O)N/N=C/c1ccccc1O: 11.5 s
- O=C(O)CCCNC(=O)NN=C1CCCCC1: 1.8 s
- O=C(O)CCCNC(=O)N/N=C/c1ccc(Cl)cc1: 11.3 s

List the reported Activity of each molecule below.
1. C/C(=N\NC(=O)NCCCC(=O)O)c1ccc(C)cc1
2. C/C(=N\NC(=O)NCCCC(=O)O)c1ccccc1
3. NCC1(CC(=O)O)CCCCC1
4. CN(C)c1ccc(/C=N/NC(=O)NCCCC(=O)O)cc1

OUT:
1: 10.9 s; 2: 9.2 s; 3: 6 s; 4: 7.3 s

* * *

Species on record: Rattus norvegicus
Test: Anti-dynamic allodynic effect in Sprague-Dawley rat CCI model assessed as latency to paw withdrawal after 2 hr
Assay type: functional
measurementKind: Activity (s)
Give bare numbers, in s.

Here are 6 molecules together with their reported answers.
- O=C(O)CCCNC(=O)N/N=C1\C(=O)Nc2ccccc21: 8.4
- O=C(O)CCCNC(=O)N/N=C/c1ccc(Cl)cc1: 14.5
- O=C(O)CCCNC(=O)N/N=C/c1ccccc1O: 14.6
- Nc1nnc(-c2cccc(Cl)c2Cl)c(N)n1: 0.9
- CN(C)c1ccc(/C=N/NC(=O)NCCCC(=O)O)cc1: 8.2
- C/C(=N\NC(=O)NCCCC(=O)O)c1ccccc1: 12.1

List the reported Activity of each molecule below.
1. NCC1(CC(=O)O)CCCCC1
2. NC(=O)N1c2ccccc2C=Cc2ccccc21 [CARBAMAZEPINE]
3. O=C(O)CCCNC(=O)N/N=C(\c1ccccc1)c1ccc(Br)cc1
4. O=C(O)CCCNC(=O)NN=C(Cc1ccccc1)Cc1ccccc1

OUT:
[5.9, 3.4, 10.9, 10.9]
